Tested on: Staphylococcus aureus
Assay: Antibacterial activity against Staphylococcus aureus ATCC 29213 assessed as reduction in microbial growth measured for 16 to 20 hrs by microdilution assay
Assay type: functional
Conditions: time 16-20 hrs
result type: MIC

Task: What value of MIC has been recorded for this entry: [C-]#[N+]c1ccc(NC(=O)Cc2ccccc2OC)cc1
Result: > 8 µM

Task: Input [C-]#[N+]c1ccc(NC(=O)c2ccc(C(=O)OC)cc2)cc1
Result: > 8 µM

Task: Input [C-]#[N+]c1ccc(NC(=O)CCC2CCCC2)cc1
Result: 8 µM

Task: Input [C-]#[N+]c1ccc(NC(=O)CCc2ccc([N+](=O)[O-])cc2)cc1
Result: > 8 µM

Task: Input [C-]#[N+]c1ccc(NC(=O)Cc2c[nH]c3ccccc23)cc1
Result: > 8 µM

Task: Input N#Cc1ccc(NC(=O)Cc2cccc(Cl)c2)cc1
Result: > 8 µM

Task: Input [C-]#[N+]c1ccc(NC(=O)Cc2ccccc2[N+](=O)[O-])cc1
Result: > 8 µM

Task: Input [C-]#[N+]c1ccc(NC(=O)Cc2cccc([N+](=O)[O-])c2)cc1
Result: 8 µM

Task: Input [C-]#[N+]c1ccc(NC(=O)Cc2cc(OC)c(OC)c(OC)c2)cc1
Result: > 8 µM

Task: Input [C-]#[N+]c1ccc(/C=C/c2ccccc2)cc1
Result: 8 µM

Task: Input [C-]#[N+]c1ccc(NC(=O)CCc2ccccc2)cc1
Result: 8 µM

Task: Input [C-]#[N+]c1ccc(NC(=O)Cc2ccc3c(c2)OCO3)cc1
Result: 8 µM

Task: Input [C-]#[N+]c1ccc(NC(=O)C(=O)c2ccccc2)cc1
Result: > 8 µM

Task: Input [C-]#[N+]c1ccc(NC(=O)c2cccnc2)cc1
Result: > 8 µM

Task: Input [C-]#[N+]c1ccc(NC(=O)Cc2ccccc2)cc1
Result: > 8 µM

Task: Input [C-]#[N+]c1ccc(NC(=O)CC(C)C)cc1
Result: > 8 µM

Task: Input [C-]#[N+]c1ccc(NC(=O)CCCCC)cc1
Result: > 8 µM

Task: Input [C-]#[N+]c1ccc(NC(=O)c2ccncc2)cc1
Result: > 8 µM

Task: Input [C-]#[N+]c1ccc(NC(=O)Cc2ccc(OC)cc2)cc1
Result: 8 µM

Task: Input [C-]#[N+]c1ccc(NC(=O)c2ccccc2[N+](=O)[O-])cc1
Result: > 8 µM

Task: Input [C-]#[N+]c1ccc(C(=O)Nc2ccccc2)cc1
Result: > 8 µM

Task: Input [C-]#[N+]c1ccc(C(=O)NCc2ccccc2)cc1
Result: > 8 µM

Task: Input [C-]#[N+]c1ccc(NC(=O)Cc2ccncc2)cc1
Result: > 8 µM

Task: Input O=C(O)c1cn(C2CC2)c2cc(N3CCNCC3)c(F)cc2c1=O
Result: 0.75 µM

Task: Input [C-]#[N+]c1ccc(NC(=O)CCc2ccc(Br)cc2)cc1
Result: 8 µM

Task: Input [C-]#[N+]c1ccc(NC(=O)c2ccc(OC)cc2)cc1
Result: > 8 µM

Task: Input [C-]#[N+]c1ccc(NC(=O)Cc2ccc([N+](=O)[O-])cc2)cc1
Result: 8 µM

Task: Input N#Cc1ccc(NC(=O)COc2ccccc2)cc1
Result: > 8 µM

Task: Input [C-]#[N+]c1ccc(NC(=O)CCc2cccnc2)cc1
Result: > 8 µM

Task: Input [C-]#[N+]c1ccc(NC(=O)Cc2ccc(Cl)cc2)cc1
Result: 8 µM

Task: Input [C-]#[N+]c1ccc(NC(=O)Cc2ccccc2Cl)cc1
Result: > 8 µM

Task: Input [C-]#[N+]c1ccc(NC(=O)CC2CCCCC2)cc1
Result: > 8 µM

Task: Input [C-]#[N+]c1ccc(NC(=O)c2ccccc2)cc1
Result: > 8 µM

Task: Input [C-]#[N+]c1ccc(NC(=O)Cc2c(Cl)cccc2Cl)cc1
Result: > 8 µM

Task: Input [C-]#[N+]c1ccc(NC(=O)CCc2cc(OC)c(OC)c(OC)c2)cc1
Result: > 8 µM

Task: Input [C-]#[N+]c1ccc(NC(=O)COc2ccccc2)cc1
Result: 8 µM

Task: Input [C-]#[N+]c1ccc(NC(=O)c2ccc(Br)cc2)cc1
Result: > 8 µM
